Experimental details: Antiviral activity against Influenza A virus A/WSN/33 (H1N1) infected in MDCK cells assessed as inhibition of virus-induced cell death at 100 uM after 36 hrs by CellTiter-Glo luminescent cell viability assay
Format: functional, Influenza A virus (A/WSN/1933(H1N1))
Readout type: inhibition at 100 µM (%)
Field format: number, assumed %, no unit text.

Qu. Give a short answer stating reported inhibition at 100 µM for `C[C@@H]1O[C@@H](O[C@H]2[C@H](O[C@H]3[C@H](O[C@H]4CC[C@]5(C)[C@H]6C(=O)C=C7[C@@H]8C[C@@](C)(C(=O)O)[C@H](O)C[C@]8(C)CC[C@@]7(C)[C@]6(C)CC[C@H]5C4(C)C)O[C@H](C(=O)O)[C@@H](O)[C@@H]3O)O[C@H](CO)[C@@H](O)[C@@H]2O)[C@H](O)[C@H](O)[C@H]1O` .
Ans. 47.5

Qu. Give a short answer stating reported inhibition at 100 µM for CCOC(=O)C1=C[C@@H](OC(CC)CC)[C@H](NC(C)=O)[C@@H](N)C1 [OSELTAMIVIR PHOSPHATE] .
Ans. 78

Qu. Give a short answer stating reported inhibition at 100 µM for `C[C@@H]1O[C@@H](O[C@@H]2CC(C)(C)C[C@H]3C4=CC(=O)[C@@H]5[C@@]6(C)CC[C@H](O[C@@H]7O[C@H](C(=O)O)[C@@H](O)[C@H](O)[C@H]7O[C@@H]7O[C@H](C(=O)O)[C@@H](O)[C@H](O)[C@H]7O)C(C)(C)[C@@H]6CC[C@@]5(C)[C@]4(C)CC[C@@]23C)[C@H](O)[C@H](O)[C@H]1O` .
Ans. 47.5

Qu. Give a short answer stating reported inhibition at 100 µM for `CC(=O)O[C@@H]1C[C@](C)(C(=O)O)C[C@H]2C3=CC(=O)[C@@H]4[C@@]5(C)CC[C@H](O[C@H]6O[C@H](C(=O)O)[C@@H](O)[C@H](O)[C@H]6O[C@@H]6O[C@H](C(=O)O)[C@@H](O)[C@H](O)[C@H]6O)C(C)(C)[C@@H]5CC[C@@]4(C)[C@]3(C)CC[C@@]12C` .
Ans. 47.5
